Target: Protein Tat (Human immunodeficiency virus type 1 group M subtype B (isolate HXB2)(HIV-1), UniProt P04608);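 further: tat binding to TAR RNA read out by fluorescence polarization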
Sequence (P04608 whole entry): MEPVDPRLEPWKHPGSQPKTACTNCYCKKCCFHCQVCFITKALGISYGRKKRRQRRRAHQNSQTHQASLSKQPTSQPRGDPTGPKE
Assay type: functional
The source made the active and inactive calls.
readoutKind: IC50

compound | result
N#Cc1ccccc1CN1C(=O)S/C(=C/c2cccn2-c2cccc(C(=O)O)c2)C1=O | > 100 µM (active)
COCCNC(=O)c1ccc(CS(=O)(=O)c2c(Cl)cccc2Cl)o1 | > 100 µM (active)
O=C(c1ccc(=O)oc1)N1CCCc2ccccc21 | 5.02 µM (inconclusive)
Cc1ccc(NC(=O)c2cc(-c3ccc(C)o3)nc3ccccc23)nc1 | > 100 µM (active)

###

Assay: C. albicans growth with fluconazole, confirmation, fluorescence, retest (AID 2467)
Type: functional, cell-based
Activity calls are given as the source filed them.
List of EC50 values.

compound | EC50
Cc1cc(NCCCn2ccnc2)n2ncc(-c3ccc(Cl)cc3)c2n1 | 3.66 µM (active)
CCn1c(C)nc2cc(C(=O)NN=C(S)Nc3ccc(Cl)cc3Cl)ccc21 | 6.98 µM (active)
CC(C)NC(=S)N/N=C/c1ccc(C(C)(C)C)cc1 | > 38 µM (not active)
Cc1cccc(C(=O)NC(=S)NNC(=O)Cc2ccccc2)c1 | 1.14 µM (active)
O=[N+]([O-])c1ccc(N/N=C/c2ccc(O)c(O)c2O)c(S(=O)(=O)N2CCOCC2)c1 | > 38 µM (not active)
